# reported growth inhibition; entries follow
experiment-summary: NCI Yeast Anticancer Drug Screen. Data for the bub3 strain (AID 167)
test-conditions: S. cerevisiae bub3 mutant strain, at 5.0 µM (retest, dose inferred, filed as 0.5), stronger effect = higher value
This is part of a sample that, as a whole, favours compounds with a hit. Of some 79,000 tested, about 15% had one in any assay.
measured-endpoint: growth inhibition (%)

molecule | number
C[N+]1(CCCl)CC[N+](C)(CCCl)CC1 (stereo not drawn) | 78
O=c1ssc(Cl)c1Cl | 99
c1ccc2c[n+](CCCCCCCCCC[n+]3ccc4ccccc4c3)ccc2c1 | 88
O=c1c2ccccc2[se]n1-c1cccnc1 | -28
C[N+](C)(C)CC1CCCC(C[N+](C)(C)C)C1=O (stereo not drawn) | -45
CN1C(=O)CC[C@@]2(C)C1=CC[C@H]1[C@@H]3CC[C@H](O)[C@@]3(C)CC[C@@H]12 | 3
CC12CCC(C)(c3cc(O)c(O)cc31)c1cc(O)c(O)cc12 | 4
[Br][Cd][Br].c1ccc([PH+](c2ccccc2)c2ccccc2)cc1.c1ccc([PH+](c2ccccc2)c2ccccc2)cc1 | 21
CC(=O)OC1CCC2(C)C3CCC4(C)C(OC(=O)c5ccccc5)CCC4C3CC(Br)C2(O)C1 (stereo not drawn) | 45
c1ccc2c(c1)c1cccc3c4c5ccccc5c5cccc(c2c13)c54 | 0
CCCCCCC1CC2(Cl)C(Cl)=C(Cl)C1(Cl)C2(Cl)Cl (stereo not drawn) | 20
CN(C)C(=[Se])[Se]C(=[Se])N(C)C | 93
CCN1CCC(O)(c2ccc(Cl)c(Cl)c2)C(C(=O)c2ccc(Cl)c(Cl)c2)C1 (stereo not drawn) | 71
OC1CCCC2CCC[N-]C12.OC1CCCC2CCC[N-]C12.[O]=[V][OH] (stereo not drawn) | 99
C(=C/P(c1ccccc1)c1ccccc1)/P(c1ccccc1)c1ccccc1.C(=CP(c1ccccc1)c1ccccc1)P(c1ccccc1)c1ccccc1.[Pt] | 56
CCCC[CH2][Pb]([CH2]CCCC)([CH2]CCCC)[O]C(C)=O | 100
COC1OC(COC(C)=O)C(OC(C)=O)C(OC(C)=O)[CH]1[Hg][I] (stereo not drawn) | 99
CC[C@@]1(O)C(=O)OCc2c1cc1n(c2=O)Cc2cc3c(NC(=O)CN)cccc3nc2-1 | -19
CN(C)C(=S)[S][Sb]([c]1ccccc1)[c]1ccccc1 | 98
CCCCCOC(=O)CCl | 0
CCC[CH2][Sn]1([CH2]CCC)[O]CC(CN(C)Cc2ccccc2)[O]1 (stereo not drawn) | -1
COc1cc(C(=O)CCN(CCCl)CCCl)cc(OC)c1OC | -3
[C-]#[O+].[C-]#[O+].[C-]#[O+].[Cl-].[Ru+2].c1ccc([PH+](CC[PH+](c2ccccc2)c2ccccc2)CC[PH+](c2ccccc2)c2ccccc2)cc1 | 50
CN(C)CC(Cl)CCl (stereo not drawn) | -8
CCCCN1C(=O)C2C(C1=O)C1(Cl)C(Cl)=C(Cl)C2(Cl)C1(Cl)Cl (stereo not drawn) | 3
CC(C)(Br)C(=O)C(Br)Br | 100
N#CC(C#N)=Cc1ccc([N+](=O)[O-])s1 | -66
CC(=O)OCC1OC([S-])C(OC(C)=O)C(OC(C)=O)C1OC(C)=O.CC[PH+](CC)CC.CC[PH+](CC)CC.[Au].[Au] (stereo not drawn) | 99

---

experiment-summary: NCI Yeast Anticancer Drug Screen. Data for the mlh1 rad18 strain (AID 175)
test-conditions: S. cerevisiae mlh1 rad18 strain growth inhibition; at 50.0 µM; stronger effect = higher value
About 79,000 compounds went through this panel and 15% of them were active in at least one assay; those are over-represented in the sample as a whole.

compound | growth inhibition (%)
O=CNc1ccccc1.[Hg] | 99.4
[Se]C(=NCc1ccccc1)NCc1ccccc1 | 52.4
CCC[CH2][Sn]1([CH2]CCC)[O]CC(CN2CCCC2)[O]1 (configuration not stated) | 82.2
CC1([CH2][Hg][I])CS(=O)(=O)CC(C)([CH2][Hg][I])O1 (configuration not stated) | 96.2
CCC[CH2][Sn]1([CH2]CCC)[S]CC[N]1S(=O)(=O)c1ccc(C)cc1 | 92
c1ccc2c(c1)[As]=c1ccccc1=[As]2 (configuration not stated) | 91.4
CC1(C)OCC(COC(=O)C=[N+]=[N-])O1 (configuration not stated) | 42.5

---

# reported growth inhibition; entries follow
experiment-summary: NCI Yeast Anticancer Drug Screen. Data for the sgs1 mgt1 strain (AID 161);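 note: 0% = growth of cultures given vehicle only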
test-conditions: S. cerevisiae sgs1 mgt1 strain, at 50.0 µM (retest, dose inferred, filed as 5.0), stronger effect = higher value
Compounds without any hit were thinned out: in the full panel of roughly 79,000, 15% have a hit.
measured-endpoint: growth inhibition (%)

compound | measured-endpoint | number
[Cl][Hg][CH2]CC1CC=CCC1 (stereo not given) | growth inhibition | 99
CCCCS.[Hg] | growth inhibition | 94
O=C1CN2C(Cl)(Cl)C2(c2ccccc2)c2cc(Cl)ccc2N1CC1CC1 (stereo not given) | growth inhibition | 94
CCC[CH2][Sn]([Cl])([CH2]Cl)[CH2]CCC | growth inhibition | 99
COC(=O)c1c(C)ccc2c(O)c3c(cc12)C(=O)c1c2c(cc(O)c1C3=O)C1(C)OC(C)(O2)C(O)C(N(C)C)C1O (stereo not given) | growth inhibition | 95

---

experiment-summary: NCI Yeast Anticancer Drug Screen. Data for the mec2-1 strain (AID 157)
test-conditions: S. cerevisiae mec2-1 strain, at 50.0 µM, stronger effect = higher value
Method: Growth inhibition of yeast strains with defined genetic alterations is measured as a screen for potential anti-cancer activity. Selected strains with alterations in DNA damage repair or cell cycle control were exposed to compounds and growth inhibition was measured relative to vehicle treated controls. The strain used in this assay is mec2-1
The panel holds about 79,000 compounds, 15% with a hit somewhere; the sample as a whole holds those more often.
measured-endpoint: growth inhibition (%)

compound | unit-info | number
COC1CC(CC2CCC(C)C(C(C)C(=O)O)O2)OC2(OC(C)(C3CCC(C)(C4OC(C5OC(O)(CO)C(C)CC5C)CC4C)O3)CC2C)C1C (configuration not stated) | % | 90
COC([CH2][Hg][n]1cnc2c1c(=O)n(C)c(=O)n2C)CN1C(=O)c2ccccc2S1(=O)=O (configuration not stated) | % | 95.3
CCCCCCC1CC2(Cl)C(Cl)=C(Cl)C1(Cl)C2(Cl)Cl (configuration not stated) | % | 99.8
COc1cc(OC)c(OC)cc1/C=C/[N+](=O)[O-] | % | 90.9
CCOC(=O)C(/N=N\c1nn[nH]n1)/N=N/c1ncn[nH]1 (configuration not stated) | % | 99.5
Clc1c(Cl)c(Cl)c([S][Pb]([c]2ccccc2)([c]2ccccc2)[c]2ccccc2)c(Cl)c1Cl | % | 98.4
O=[N+]([O-])c1cc(S(=O)(=O)F)ccc1S | % | 77.5
CC1CC(C)CC(C)C(O)/C(C#N)=C/C=C/CC(C2CCCC2C(=O)O)OC(=O)CC(O)C(C)C1 (configuration not stated) | % | 94.5
CCC[CH2][Sn]([N]=C=S)([N]=C=S)[N]=C=S.O=P(c1ccccc1)(c1ccccc1)c1ccccc1.O=P(c1ccccc1)(c1ccccc1)c1ccccc1 | % | 61.2
[C](#Cc1ccccc1)[Hg][C]#Cc1ccccc1 | % | 98.8
CCCCN(CC)CC(C(C)=O)c1c(O)c2ccccc2oc1=O (configuration not stated) | % | 48.2
COc1cc(CC(=O)N2CC2)cc(OC)c1OC | % | -3.1
COc1cc(C[C@H]2c3cc(OC)c(OC)c(O)c3CCN2C)c(Oc2cc3c(cc2OC)-c2c(OC)c(OC)c(OC)c4c2C(C3)N(C)CC4)cc1OC (some centres not stated) (tested in a mixture with another compound) | % | 33.5
O=C1OC2C(O1)C1(Cl)C(Cl)=C(Cl)C2(Cl)C1(Cl)Cl (configuration not stated) | % | 87.8
CC(C)c1c(O)c(O)c2c(c1O)C(=O)C(O)=C1C(C)(C)CCC[C@@]12C | % | 88.8
Cc1ccc([C@H]2N[C@@H]2c2ccccn2)cc1 | % | 7
N#CC(Nc1c(N)nc(-c2ccccc2)nc1N)c1ccc(N(CCCl)CCCl)cc1 (configuration not stated) | % | 66

---

experiment-summary: NCI Yeast Anticancer Drug Screen. Data for the rad14 strain (AID 159);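 note: 0% = growth of vehicle-treated control cultures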
test-conditions: S. cerevisiae rad14 strain growth inhibition; at 11.0 µM
This is part of a sample that, as a whole, favours compounds with a hit. Of some 79,000 tested, about 15% had one in any assay. Calls of active or inactive are those of the source. Cut-off read from the data, not from the text of the source: active = growth inhibition above about 70%; inactive = the rest.
Outcomes: active, inactive

compound | discrete-label
CC12CCC(C1)C(C)(C)C2OC(=O)c1ccccc1N (stereo not drawn) | inactive
C=C[C@H]1CN2CC[C@H]1C[C@@H]2[C@@H](O)c1ccnc2ccccc12 | inactive
COc1cc(O)c2c(O)c3c(c4c2c1[C@]1(C4)C(C)=CCCC1(C)C)[C@H](O)[C@@]1(O)CC(=O)C(C(N)=O)=C(O)[C@@]1(O)C3=O | active
O=C(O)CCCc1cc(I)c(N(CCCl)CCCl)c(I)c1 | inactive
COC(=O)C1=C(C(=O)OC)C2OC1c1cc3ccccc3cc12 | inactive
CCOP(=O)(CC(C)P(=O)(OCC)OCC)OCC.C[CH2][Sn]([Cl])([Cl])[CH2]C (stereo not drawn) | inactive
CC1CCCN(CCc2ccccc2)CC1 (stereo not drawn) | inactive
O=C1C=C(CN(CCCl)CCCl)C(=O)C=C1CN(CCCl)CCCl | inactive
Nc1nnc(N)n1-n1c(N)nnc1N | inactive
C/C(=N\NC(N)=O)C(CN1CCOCC1)C(c1ccccc1)c1c(O)c2ccccc2oc1=O (stereo not drawn) | inactive
COc1ccc(/C=C(/C)[N+](=O)[O-])cc1 | inactive
C[N+](CCCl)(CCCl)Cc1cccc2cccc([N+](=O)[O-])c12 | inactive
C[C@@]12CCC(=O)C=C1CC[C@H]1C2=CC[C@]2(C)C1CC[C@@]2(C)O (stereo partly drawn) | inactive
O=C(NNC(=O)OCC(Cl)(Cl)Cl)OCC(Cl)(Cl)Cl | inactive
CCCCCCCCCCCCCCCCP(=O)(O)OP(=O)(O)OCC1OC(n2ccc(N)nc2=O)C(O)C1O (stereo not drawn) | inactive
c1c(N2CCOCC2)ssc1=[N+]1CCOCC1 | inactive
CCCCCNC(=O)c1c(O)[nH]c(=S)[nH]c1=O | active
CCCCCCCCCCCCCCCCP(=O)(O)OCC(N)C(=O)O (stereo not drawn) | inactive
C/C(=N\O)c1ccc2ccc3ccccc3c2c1 | inactive
OC1CCCC2CCC[N-]C12.OC1CCCC2CCC[N-]C12.[O]=[V][OH] (stereo not drawn) | active
Oc1cccc2cccnc12 | active
O=C(/C=C(\c1ccccc1)N1CC1)c1ccccc1 | inactive
CC1CC(Br)C(=O)O1 (stereo not drawn) | inactive
Nc1nc(N)c2c(Cl)c(CNc3ccc(C(=O)NC(CC(=O)O)C(=O)O)cc3)ccc2n1 (stereo not drawn) | inactive
CC1CN=C(Nc2ccccc2)S1 (stereo not drawn) | inactive
O=C(O)C1C2CCC(C2)C1c1ccccc1 (stereo not drawn) | inactive
COC1C(O)C(C)OC(OC2C(Oc3cccc4c(O)c5c(=O)oc6ccc(C)c7c(=O)oc(c34)c5c67)OC(C)C(O)C2O)C1O (stereo not drawn) | inactive
N#CC(C#N)=Cc1ccc(C#N)cc1 | inactive
CCN(CC)CCBr | inactive
CCOC(=O)C1([Se]c2ccccc2)CCCC1=O (stereo not drawn) | inactive
CS(=O)(=O)OCCN(CCOS(C)(=O)=O)c1ccc(C=O)cc1 | inactive
O=Cc1ccc(C(F)(F)F)cc1.[C-]#[O+].[C-]#[O+].[C-]#[O+].[Cr] | inactive
CC[C@@]1(O)C(=O)OCc2c1cc1n(c2=O)Cc2cc3c(NC(=O)CN)cccc3nc2-1 | inactive
O=C1NC(=S)NC(=O)C1=Cc1ccc([N+](=O)[O-])o1 | inactive
Cc1ccc2c(c1)C1(C)c3cc(C)ccc3SP1S2 (stereo not drawn) | inactive
Nc1ccc(Cl)cc1C(=O)c1ccccc1 | inactive
Cn1cnc(N)c1C(=N)[Se] | inactive
C[C@]12CCC3[C@@H](CC[C@@H]4c5nonc5CC[C@]34C)C1CCC2=O (stereo partly drawn) | inactive
Cc1nc2ccccc2cc1C[N+]12CN3CN(CN(C3)C1)C2 | inactive
Br[Se]c1ccccn1 | active
CN(C)CCSC1=Nc2ccc(Cl)cc2C(c2ccccc2Cl)=NC1 | inactive
Cc1c2ccccc2cc2ccccc12 | inactive
Oc1cccc2nc3ccccc3nc12 | inactive
